Entry source: patent US20110256153A1

Measured EC50 of in vitro cytotoxicity, WST-8 assay, Granta-519 cells accompanies every entry in the list below.
- assay-system: T1, human CD37 (human, UniProt P11049 1-278)
- T1 sequence: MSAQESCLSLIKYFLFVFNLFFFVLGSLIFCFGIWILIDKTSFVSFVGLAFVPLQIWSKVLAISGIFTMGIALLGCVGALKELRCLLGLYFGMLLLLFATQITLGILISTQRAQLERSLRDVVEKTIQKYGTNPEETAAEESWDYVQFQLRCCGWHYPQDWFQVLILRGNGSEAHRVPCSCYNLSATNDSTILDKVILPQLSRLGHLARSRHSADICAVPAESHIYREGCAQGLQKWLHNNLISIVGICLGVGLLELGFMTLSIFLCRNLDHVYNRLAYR
- assay: cell-based or functional assay
Output spec: scalar in pM, unitless text.

Record excerpt, results attached:
[[record]]
binder = "huCD37-51-SMCC-DM1 (antibody, human IgG1, kappa, V domains shown, DM1 attached through SMCC linker; attachment residues and load not stated, SMCC-DM1 conjugate of huCD37-51) VH: EVQLVESGPEVLKPGESLSLTCTVSGYSISSGFAWHWIRQFPGKGLEWMGYIHYSGSTNYSPSLQGRISITRDSSINQFFLQLNSVTASDTATYYCARGYYGFGAWFVYWGQGTLVTVSA VL: EIVLTQSPATMSASPGERVTMTCSATSSVTYMHWYQQKPGQSPKRWIYDTSKLASGVPARFSGSGSGTSYSLTISSMEAEDAATYYCQQWSSNPPTFGQGTKLEIKR"
test_result = 250

[[record]]
binder = "huCD37-3-SMCC-DM1 (antibody, human IgG1, kappa, V domains shown, DM1 attached through SMCC linker; attachment residues not stated; 3.5-4 DM1 per antibody, heavy chain version as for huCD37-3, see its note) VH: QVQVQESGPGLVAPSQTLSITCTVSGFSLTTSGVSWVRQPPGKGLEWLGVIWGDGSTNYHPSLKSRLSIKKDHSKSQVFLKLNSLTAADTATYYCAKGGYSLAHWGQGTLVTVSS VL: DIQMTQSPSSLSVSVGERVTITCRASENIRSNLAWYQQKPGKSPKLLVNVATNLADGVPSRFSGSGSGTDYSLKINSLQPEDFGTYYCQHYWGTTWTFGQGTKLEIKR"
test_result = 47


For record huCD37-50-SMCC-DM1 (antibody, human IgG1, kappa, V domains shown, DM1 attached through SMCC linker; attachment residues and load not stated, SMCC-DM1 conjugate of huCD37-50) VH: QVQLQESGPGLLKPSQSLSLTCTVSGYSITSGFAWHWIRQHPGNKLEWMGYILYSGSTVYSPSLKSRISITRDTSKNHFFLQLNSVTAADTATYYCARGYYGYGAWFAYWGQGTLVTVSA VL: EIVLTQSPATMSASPGERVTMTCSATSSVTYMHWYQQKPGQSPKRWIYDTSNLPYGVPARFSGSGSGTSYSLTISSMEAEDAATYYCQQWSDNPPTFGQGTKLEIKR the listed EC50 of in vitro cytotoxicity, WST-8 assay, Granta-519 cells is 120
